Test Name: self-splicing fitness, log relative to wild type (ln ratio); higher = more splicing; Tetrahymena group I intron in knt gene, E. coli kanamycin selection, DiMSum; sequences stand for … in CUCUCU…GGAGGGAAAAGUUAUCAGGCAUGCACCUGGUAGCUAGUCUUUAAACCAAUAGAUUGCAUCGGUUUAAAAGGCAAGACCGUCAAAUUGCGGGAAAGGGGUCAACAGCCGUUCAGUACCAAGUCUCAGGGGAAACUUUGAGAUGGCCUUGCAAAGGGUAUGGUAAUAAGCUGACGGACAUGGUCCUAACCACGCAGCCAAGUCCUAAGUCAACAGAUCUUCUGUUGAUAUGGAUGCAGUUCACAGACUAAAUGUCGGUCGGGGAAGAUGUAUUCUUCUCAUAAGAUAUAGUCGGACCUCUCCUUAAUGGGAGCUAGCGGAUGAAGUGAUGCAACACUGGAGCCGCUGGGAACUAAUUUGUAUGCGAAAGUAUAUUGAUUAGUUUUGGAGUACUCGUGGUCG;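 also: selection with 25 µg/mL kanamycin versus none on LB agar overnight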
Assay Context: 30 °C
Answer Condition not met if self-splicing fitness (ln) is under -3, and Condition met if it is -3 or more.

{"Ordered Residues": "CCUGAGCAAUAUUACGCCCA", "Qualitative Label": "Condition not met"}
{"Ordered Residues": "GGUGAGCAAUAUUACGGUUG", "Qualitative Label": "Condition not met"}
{"Ordered Residues": "UUCAAGCAAUAUUACGAGAA", "Qualitative Label": "Condition met"}
{"Ordered Residues": "AGGGAGCAAUAUUACGAACC", "Qualitative Label": "Condition met"}
{"Ordered Residues": "GUAUAGCAAUAUUACGUGCC", "Qualitative Label": "Condition not met"}
{"Ordered Residues": "CGGCAGCAAUAUUACGACGG", "Qualitative Label": "Condition met"}
{"Ordered Residues": "AAAAAGCAAUAUUACGAAAA", "Qualitative Label": "Condition met"}
{"Ordered Residues": "ACCAAGCAAUAUUACGGGAC", "Qualitative Label": "Condition not met"}
{"Ordered Residues": "GCUGAGCAAUAUUACGUCAC", "Qualitative Label": "Condition met"}
{"Ordered Residues": "GGUAAGCAAUAUUACGACGU", "Qualitative Label": "Condition met"}
{"Ordered Residues": "GUGUAGCAAUAUUACGAGCC", "Qualitative Label": "Condition met"}
{"Ordered Residues": "GACAAGCAAUAUUACGCCUU", "Qualitative Label": "Condition met"}
{"Ordered Residues": "CAAGAGCAAUAUUACGUUGA", "Qualitative Label": "Condition not met"}
{"Ordered Residues": "UCCUAGCAAUAUUACGCGCG", "Qualitative Label": "Condition not met"}

====

Test Name: self-splicing fitness, log relative to wild type (ln ratio); higher = more splicing; Tetrahymena group I intron in knt gene, E. coli kanamycin selection, DiMSum; sequences stand for … in CUCUCU…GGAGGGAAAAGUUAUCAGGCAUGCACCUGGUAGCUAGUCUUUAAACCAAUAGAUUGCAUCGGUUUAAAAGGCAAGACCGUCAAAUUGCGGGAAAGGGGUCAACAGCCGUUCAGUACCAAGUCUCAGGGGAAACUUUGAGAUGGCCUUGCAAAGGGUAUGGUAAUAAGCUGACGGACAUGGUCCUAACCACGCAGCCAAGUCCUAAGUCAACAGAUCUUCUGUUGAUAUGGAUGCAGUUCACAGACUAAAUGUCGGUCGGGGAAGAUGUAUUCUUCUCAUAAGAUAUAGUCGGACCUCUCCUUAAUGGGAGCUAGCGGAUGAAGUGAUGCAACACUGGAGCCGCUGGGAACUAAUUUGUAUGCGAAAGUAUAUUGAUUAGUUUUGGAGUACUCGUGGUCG
Assay Context: 37 °C
Kindly note that classification relies on self-splicing fitness (ln) with these boundaries: 1 = under -2, 2 = from -2 up to -1, 3 = -1 and over

{"Ordered Residues": "GGCCAGCAAUAUUACGCGUU", "Qualitative Label": 3}
{"Ordered Residues": "CUGGAGCAAUAUUACGCAAG", "Qualitative Label": 1}
{"Ordered Residues": "AAGUAGCAAUAUUACGGGGG", "Qualitative Label": 1}
{"Ordered Residues": "ACACAGCAAUAUUACGGUAU", "Qualitative Label": 2}
{"Ordered Residues": "ACACAGCAAUAUUACGAACG", "Qualitative Label": 3}
{"Ordered Residues": "CCGAAGCAAUAUUACGUCGA", "Qualitative Label": 2}
{"Ordered Residues": "CUCCAGCAAUAUUACGUUGA", "Qualitative Label": 1}
{"Ordered Residues": "UUUUAGCAAUAUUACGCUUU", "Qualitative Label": 2}
{"Ordered Residues": "UCUCAGCAAUAUUACGGGGC", "Qualitative Label": 1}
{"Ordered Residues": "GGUAAGCAAUAUUACGCCGA", "Qualitative Label": 3}
{"Ordered Residues": "UUCUAGCAAUAUUACGGCGA", "Qualitative Label": 3}
{"Ordered Residues": "CAUAAGCAAUAUUACGUUAA", "Qualitative Label": 1}
{"Ordered Residues": "ACGCAGCAAUAUUACGGAAU", "Qualitative Label": 1}
{"Ordered Residues": "UAUAAGCAAUAUUACGAACU", "Qualitative Label": 3}
{"Ordered Residues": "CAACAGCAAUAUUACGUCGU", "Qualitative Label": 1}
{"Ordered Residues": "GGCAAGCAAUAUUACGGACC", "Qualitative Label": 3}
{"Ordered Residues": "UAAUAGCAAUAUUACGCUCG", "Qualitative Label": 3}
{"Ordered Residues": "AGAUAGCAAUAUUACGGUCG", "Qualitative Label": 3}
{"Ordered Residues": "CAUCAGCAAUAUUACGCGUU", "Qualitative Label": 2}
{"Ordered Residues": "GAGUAGCAAUAUUACGCUGU", "Qualitative Label": 2}
{"Ordered Residues": "ACGUAGCAAUAUUACGACUU", "Qualitative Label": 3}
{"Ordered Residues": "AAGGAGCAAUAUUACGUCCU", "Qualitative Label": 1}
{"Ordered Residues": "GCGAAGCAAUAUUACGUGCG", "Qualitative Label": 2}
{"Ordered Residues": "CGCCAGCAAUAUUACGGAAG", "Qualitative Label": 3}
{"Ordered Residues": "GGUAAGCAAUAUUACGAUCC", "Qualitative Label": 2}
{"Ordered Residues": "CUGUAGCAAUAUUACGGUCU", "Qualitative Label": 1}
{"Ordered Residues": "CAAUAGCAAUAUUACGCUGG", "Qualitative Label": 3}
{"Ordered Residues": "CAGGAGCAAUAUUACGAUAA", "Qualitative Label": 2}
{"Ordered Residues": "AACAAGCAAUAUUACGGGGG", "Qualitative Label": 2}
{"Ordered Residues": "UGAUAGCAAUAUUACGCUCG", "Qualitative Label": 3}
{"Ordered Residues": "GCCGAGCAAUAUUACGAUAU", "Qualitative Label": 2}
{"Ordered Residues": "GGCAAGCAAUAUUACGAGCU", "Qualitative Label": 2}
{"Ordered Residues": "CGACAGCAAUAUUACGGUAC", "Qualitative Label": 1}
{"Ordered Residues": "UCAUAGCAAUAUUACGUGGG", "Qualitative Label": 2}
{"Ordered Residues": "GCAAAGCAAUAUUACGUCCG", "Qualitative Label": 2}
{"Ordered Residues": "CGCGAGCAAUAUUACGUUGU", "Qualitative Label": 1}
{"Ordered Residues": "GUGAAGCAAUAUUACGAACA", "Qualitative Label": 3}
{"Ordered Residues": "AAGGAGCAAUAUUACGGGCA", "Qualitative Label": 2}
{"Ordered Residues": "CAGUAGCAAUAUUACGCGGG", "Qualitative Label": 2}
{"Ordered Residues": "CCCGAGCAAUAUUACGGGGC", "Qualitative Label": 1}
{"Ordered Residues": "CCGGAGCAAUAUUACGAAUA", "Qualitative Label": 1}
{"Ordered Residues": "GAACAGCAAUAUUACGGCUU", "Qualitative Label": 3}
{"Ordered Residues": "GGUAAGCAAUAUUACGUGUA", "Qualitative Label": 3}
{"Ordered Residues": "AGAGAGCAAUAUUACGUAAC", "Qualitative Label": 1}
{"Ordered Residues": "UCAUAGCAAUAUUACGACUC", "Qualitative Label": 2}
{"Ordered Residues": "AAUAAGCAAUAUUACGUCCC", "Qualitative Label": 3}
{"Ordered Residues": "GUGUAGCAAUAUUACGUUCA", "Qualitative Label": 3}
{"Ordered Residues": "GAAGAGCAAUAUUACGAACA", "Qualitative Label": 2}
{"Ordered Residues": "UACAAGCAAUAUUACGACUA", "Qualitative Label": 3}
{"Ordered Residues": "UGGUAGCAAUAUUACGUGGU", "Qualitative Label": 1}
{"Ordered Residues": "GCAUAGCAAUAUUACGGAGA", "Qualitative Label": 1}
{"Ordered Residues": "CGCUAGCAAUAUUACGCUCU", "Qualitative Label": 3}
{"Ordered Residues": "GCUUAGCAAUAUUACGAAUA", "Qualitative Label": 3}
{"Ordered Residues": "CGAUAGCAAUAUUACGGAAC", "Qualitative Label": 1}
{"Ordered Residues": "CUUCAGCAAUAUUACGGAAC", "Qualitative Label": 1}
{"Ordered Residues": "GACGAGCAAUAUUACGUGUU", "Qualitative Label": 1}
{"Ordered Residues": "GCGGAGCAAUAUUACGUCAG", "Qualitative Label": 1}
{"Ordered Residues": "AUAGAGCAAUAUUACGAGGA", "Qualitative Label": 1}
{"Ordered Residues": "GUUAAGCAAUAUUACGAUCG", "Qualitative Label": 2}
{"Ordered Residues": "GUGUAGCAAUAUUACGAGCC", "Qualitative Label": 1}
{"Ordered Residues": "CGAGAGCAAUAUUACGAAAU", "Qualitative Label": 1}
